Target: T1, GPR10 (UniProt P49683 1-370, limits assumed)
T1 sequence (looked up): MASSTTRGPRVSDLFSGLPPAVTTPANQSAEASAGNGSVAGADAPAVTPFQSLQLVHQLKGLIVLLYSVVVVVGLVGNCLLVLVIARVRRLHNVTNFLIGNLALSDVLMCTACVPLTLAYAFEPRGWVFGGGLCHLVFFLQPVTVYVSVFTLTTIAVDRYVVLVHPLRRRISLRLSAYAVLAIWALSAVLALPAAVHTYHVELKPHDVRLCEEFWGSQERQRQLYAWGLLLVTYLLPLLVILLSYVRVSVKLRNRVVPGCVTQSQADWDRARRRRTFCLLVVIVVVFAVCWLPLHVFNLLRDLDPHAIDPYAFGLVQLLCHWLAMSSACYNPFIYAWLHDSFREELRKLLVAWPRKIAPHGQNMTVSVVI
Test: cell-based or functional assay
Bridges are numbered along the chain shown (N, C = ends). Where no end group is shown, it is not given here. [ ]: non-standard residue; d: D form. NMeR = CN[C@@H](CCCNC(=N)N)C(=O)O; hArg = N=C(N)NCCCC[C@H](N)C(=O)O; β3hR = N=C(N)NCCC[C@H](N)CC(=O)O; Nle = CCCC[C@H](N)C(=O)O; L3 = not defined here; L4 = not defined here
For each entry below, report its GPR10 EC50 value.
Numbers only, in nM.

Reference set (3 entries):
SRAHQCS[Nle]ETRTCDINPAWYTG[β3hR]GIRPVGRF-NH2 (linker 6-13 via L4; reading uncertain) [Conjugate 260] : 60
SRAHQHSMETRTPDINPAWYTGRGIRPVGRF-NH2 [SEQ ID NO 107] : 12
SRAHQCS[Nle]ETRTCDINPAWYTGRGIRPVG[NMeR]F-NH2 (linker 6-13 via L4; reading uncertain) [Conjugate 262] : 280

Then this binder:
# input Need GPR10 EC50, item SRAHQCS[Nle]ETRTCDINPAWYTG[hArg]GIRPVGRF-NH2 (linker 6-13 via L3; reading uncertain) [Conjugate 255]
# output 9.1
